Listed here are molecules together with their documented IC50.
- ASSAY_TARGET: Histone deacetylase
- ASSAY_METHOD_TEXT: Inhibition of HDAC in human HeLa cell nuclear extract using Boc-Lys(acetyl)-AMC as substrate preincubated with enzyme for 5 mins prior to substrate addition measured after 30 mins by fluorescence assay
- Type: protein assay
Entry rule: numbers only, all in nM.

input: Quick check: IC50 of COc1cc(/C=C/C(=O)NO)ccc1OC[C@H](Cc1c[nH]c2ccccc12)NC(=O)[C@H](Cc1ccc(O)cc1)NC(=O)OC(C)(C)C ?
output: 320

input: Then this molecule: COc1cc(/C=C/C(=O)NO)ccc1OC[C@H](Cc1c[nH]c2ccccc12)NC(=O)[C@@H]1CCCN1C(=O)OC(C)(C)C
output: 430

input: Then this molecule: COc1cc(/C=C/C(=O)NO)ccc1OC[C@H](Cc1c[nH]c2ccccc12)NS(=O)(=O)c1ccc(F)cc1
output: 1060

input: Then this molecule: COc1cc(/C=C/C(=O)NO)ccc1OC[C@H](Cc1c[nH]c2ccccc12)NC(=O)C1CCN(C(=O)OC(C)(C)C)CC1
output: 1120

input: Then this molecule: COc1cc(/C=C/C(=O)NO)ccc1OC[C@H](Cc1c[nH]c2ccccc12)NC(=O)[C@H](CO)NC(=O)OC(C)(C)C
output: 140

input: Then this molecule: COc1cc(/C=C/C(=O)NO)ccc1OC[C@H](Cc1c[nH]c2ccccc12)NC(=O)[C@H](CCCCNC(=O)OC(C)(C)C)NC(=O)OC(C)(C)C
output: 1170

input: Then this molecule: COc1cc(/C=C/C(=O)NO)ccc1OC[C@H](Cc1c[nH]c2ccccc12)NC(=O)[C@H](Cc1c[nH]c2ccccc12)NC(=O)OC(C)(C)C
output: 490

input: Then this molecule: COc1cc(CCC(=O)NO)ccc1OC[C@H](Cc1c[nH]c2ccccc12)NC(=O)OC(C)(C)C
output: 2090

input: Then this molecule: COc1cc(/C=C/C(=O)NO)ccc1OC[C@H](Cc1c[nH]c2ccccc12)NC(=O)[C@@H]1CC2(CN1C(=O)OC(C)(C)C)SCCS2
output: 800

input: Then this molecule: COc1cc(/C=C/C(=O)NO)ccc1OC[C@H](Cc1c[nH]c2ccccc12)NC(=O)[C@@H](NC(=O)OC(C)(C)C)[C@@H](C)O
output: 180

---

- ASSAY_TARGET: Histone deacetylase
- ASSAY_METHOD_TEXT: Inhibition of HDAC in human HeLa cell nuclear extract using Boc-Lys(acetyl)-AMC as substrate preincubated with enzyme for 5 mins prior to substrate addition measured after 30 mins by fluorescence assay
- Format: protein assay
Listed here are molecules together with their documented IC50.
Include the unit after the number when you answer.

input: Form: Entry = COc1cc(/C=C/C(=O)NO)ccc1OC[C@H](Cc1c[nH]c2ccccc12)NC(=O)[C@H](CCSC)NC(=O)OC(C)(C)C | System = Histone deacetylase | IC50 = ____
output: 0.18 µM

input: Then this molecule: COc1cc(/C=C/C(=O)NO)ccc1OC[C@@H](N)Cc1c[nH]c2ccccc12.Cl
output: 2.91 µM

input: Then this molecule: COc1cc(/C=C/C(=O)NO)ccc1OC[C@H](Cc1c[nH]c2ccccc12)NC(=O)c1ccc(NC(=O)OC(C)(C)C)cc1
output: 0.73 µM
